assay-explanation: Bidirectional transwell permeability, parental MDCKII monolayer
Type: in vitro ADME
test-context: dog, MDCK, pH 7.4, Intrinsic passive transcellular permeability (Papp,A-B/λ), unbound and unionized drug
Recorded Papp A→B at 1 h, 1 μmol/L values for a group of compounds are listed next.

query-smiles	Papp A→B at 1 h, 1 μmol/L
Cc1cc(Nc2ncnc3ccc(NC4=NC(C)(C)CO4)cc23)ccc1Oc1ccn2ncnc2c1	13.3 ×10⁻⁶ cm/s
CCOc1cc2ncc(C#N)c(Nc3ccc(OCc4ccccn4)c(Cl)c3)c2cc1NC(=O)/C=C/CN(C)C	13.5 ×10⁻⁶ cm/s
CS(=O)(=O)CCNCc1ccc(-c2ccc3ncnc(Nc4ccc(OCc5cccc(F)c5)c(Cl)c4)c3c2)o1	4.14 ×10⁻⁶ cm/s

====

Recorded blood plasma ratio values for a group of molecules are listed next.
assay-explanation: Blood-to-plasma partition ratio
Assay type: in vitro ADME
test-context: blood and plasma

query-smiles	blood plasma ratio
Cc1cc(Nc2ncnc3ccc(NC4=NC(C)(C)CO4)cc23)ccc1Oc1ccn2ncnc2c1	0.93
CCOc1cc2ncc(C#N)c(Nc3ccc(OCc4ccccn4)c(Cl)c3)c2cc1NC(=O)/C=C/CN(C)C	0.7

====

Recorded fraction unbound values for a group of compounds are listed next.
assay-explanation: Binding to human plasma proteins
Type: in vitro ADME
test-context: pooled human plasma
measured-metric: fraction unbound

compound	measured-metric	endpoint-result
Cc1cc(Nc2ncnc3ccc(NC4=NC(C)(C)CO4)cc23)ccc1Oc1ccn2ncnc2c1 [tucatinib]	fraction unbound	0.03
CS(=O)(=O)CCNCc1ccc(-c2ccc3ncnc(Nc4ccc(OCc5cccc(F)c5)c(Cl)c4)c3c2)o1 [lapatinib]	fraction unbound	0.014
CCOc1cc2ncc(C#N)c(Nc3ccc(OCc4ccccn4)c(Cl)c3)c2cc1NC(=O)/C=C/CN(C)C [neratinib]	fraction unbound	0.007

====

assay-explanation: In vitro metabolism in pooled human liver microsomes
Format: in vitro ADME
Recorded microsomal CLint values for a group of compounds are listed next.
measured-metric: microsomal CLint (µL/min/mg)

query-smiles	measured-metric	endpoint-result
CS(=O)(=O)CCNCc1ccc(-c2ccc3ncnc(Nc4ccc(OCc5cccc(F)c5)c(Cl)c4)c3c2)o1	microsomal CLint	22.8
CCOc1cc2ncc(C#N)c(Nc3ccc(OCc4ccccn4)c(Cl)c3)c2cc1NC(=O)/C=C/CN(C)C	microsomal CLint	39
Cc1cc(Nc2ncnc3ccc(NC4=NC(C)(C)CO4)cc23)ccc1Oc1ccn2ncnc2c1	microsomal CLint	41.8

====

assay-explanation: Binding to human brain tissue
Type: in vitro ADME
test-context: pooled human brain tissue

query-smiles	fraction unbound
CS(=O)(=O)CCNCc1ccc(-c2ccc3ncnc(Nc4ccc(OCc5cccc(F)c5)c(Cl)c4)c3c2)o1	0.0004
Cc1cc(Nc2ncnc3ccc(NC4=NC(C)(C)CO4)cc23)ccc1Oc1ccn2ncnc2c1	0.015
CCOc1cc2ncc(C#N)c(Nc3ccc(OCc4ccccn4)c(Cl)c3)c2cc1NC(=O)/C=C/CN(C)C	0.004
